Molecular target: Histamine H2 receptor (Homo sapiens, UniProt P25021)
Sequence (P25021 whole entry): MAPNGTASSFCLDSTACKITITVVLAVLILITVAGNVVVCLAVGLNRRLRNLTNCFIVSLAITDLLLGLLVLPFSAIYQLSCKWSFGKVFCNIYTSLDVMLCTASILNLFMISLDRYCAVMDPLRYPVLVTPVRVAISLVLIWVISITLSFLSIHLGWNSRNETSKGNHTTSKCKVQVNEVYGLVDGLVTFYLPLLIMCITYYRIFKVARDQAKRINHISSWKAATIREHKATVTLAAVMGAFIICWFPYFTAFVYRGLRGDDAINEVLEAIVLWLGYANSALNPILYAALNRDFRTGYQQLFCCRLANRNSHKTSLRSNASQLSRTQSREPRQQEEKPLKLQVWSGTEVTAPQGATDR
Assay: Agonist activity at human histamine receptor expressed in sf9 insect cell membranes co-exprssing GsalphaS incubated for 90 mins [35S]GTPgammaS binding based microbeta scintillation counting analysis
Assay type: functional, Membrane
Recorded pEC50, one value per entry.
A value of pEC50 is the negative decimal logarithm of a concentration given in moles per litre.

Cc1nc(N)sc1CCCN/C(N)=N/C(=O)NCC(c1ccccc1)C(C)C (stereo not drawn) : 7.51

Exercise: // lookup pEC50 for "Cc1nc(N)sc1CCCN/C(N)=N/C(=O)Nc1ccccc1"
Solution: 6.28

Exercise: // lookup pEC50 for Cc1ccc(CC(C)CNC(=O)/N=C(\N)NCCCc2sc(N)nc2C)cc1 (stereo not drawn)
Solution: 7.22

* * *

Molecular target: Histamine H2 receptor (Cavia porcellus)
Sequence (P47747 whole entry): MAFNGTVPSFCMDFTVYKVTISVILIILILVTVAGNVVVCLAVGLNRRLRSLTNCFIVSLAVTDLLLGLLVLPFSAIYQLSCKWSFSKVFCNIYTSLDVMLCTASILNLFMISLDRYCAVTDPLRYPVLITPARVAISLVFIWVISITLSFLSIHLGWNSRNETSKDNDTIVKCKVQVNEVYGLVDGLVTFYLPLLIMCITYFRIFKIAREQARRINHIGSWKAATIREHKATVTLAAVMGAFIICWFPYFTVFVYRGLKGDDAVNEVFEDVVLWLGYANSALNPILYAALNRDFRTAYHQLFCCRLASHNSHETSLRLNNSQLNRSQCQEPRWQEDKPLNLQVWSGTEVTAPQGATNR
Test: Agonist activity at guinea pig right atrium histamine H2 receptor assessed as increase in heart rate incubated for 30 mins in presence of cimetidine
OBSERVED_PROPERTY: EC50 (nM)
Numeric only. Scale: nM

# count of solved cases: 4
Cc1nc(N)sc1CCCN/C(N)=N/C(=S)N[C@@H](C)c1ccccc1 : 224
Cc1nc(N)sc1CCCN/C(N)=N/C(=S)N[C@H](C)c1ccccc1 : 89.1
Cc1nc(N)sc1CCCN/C(N)=N/C(=O)N[C@@H](C)c1ccccc1 : 23.4
Cc1nc(N)sc1CCCN/C(N)=N/C(=O)NC[C@@H](C)c1ccccc1 : 12.9

Now for another entry.
Exercise: Form field: EC50 recorded for "Cc1nc(N)sc1CCCN/C(N)=N/C(=O)NCc1ccco1" with Histamine H2 receptor (Cavia porcellus) (enter value)
Solution: 11.7
